system: LG0567-F671-PDC multi-cell spheroid viability; experiment: Anticancer human tumor LG0567-F671-PDC patient-derived lung adenocarcinoma cell line growth inhibition [IpAb]; conditions: second compound 1 µM; first compound 1 µM; hits give low values
recorded-endpoint: viability, T/C (%)

>>> quantitative_readout("COc1c(OCCCN2CCOCC2)ccc2c3n(c(=NC(=O)c4cnc(N)nc4)nc12)CCN3 + CCN1CCN(Cc2ccc(Nc3ncc(F)c(-c4cc(F)c5nc(C)n(C(C)C)c5c4)n3)nc2)CC1")
25.1
>>> quantitative_readout("CCCS(=O)(=O)Nc1ccc(F)c(C(=O)c2c[nH]c3ncc(-c4ccc(Cl)cc4)cc23)c1F + CCN1CCN(Cc2ccc(Nc3ncc(F)c(-c4cc(F)c5nc(C)n(C(C)C)c5c4)n3)nc2)CC1")
70.4
>>> quantitative_readout("Cc1nc(NC(=O)N2CCCC2C(N)=O)sc1-c1ccnc(C(C)(C)C(F)(F)F)c1 (stereo not drawn) + CC(C)NCC(C(=O)N1CCN(c2ncnc3c2C(C)CC3O)CC1)c1ccc(Cl)cc1")
34.2
>>> quantitative_readout("C=CC(=O)N1CCN(c2nc(=O)n(-c3c(C)ccnc3C(C)C)c3nc(-c4c(O)cccc4F)c(F)cc23)C(C)C1 (stereo not drawn) + CC(C)NCC(C(=O)N1CCN(c2ncnc3c2C(C)CC3O)CC1)c1ccc(Cl)cc1")
10.5
>>> quantitative_readout("CC1(C)CCC(CN2CCN(c3ccc(C(=O)NS(=O)(=O)c4ccc(NCC5CCOCC5)c([N+](=O)[O-])c4)c(Oc4cnc5[nH]ccc5c4)c3)CC2)=C(c2ccc(Cl)cc2)C1 + CC(C)NCC(C(=O)N1CCN(c2ncnc3c2C(C)CC3O)CC1)c1ccc(Cl)cc1")
76.2
>>> quantitative_readout("Cn1nccc1Nc1nccc(-c2ccn(C(CO)c3ccc(Cl)c(F)c3)c(=O)c2)n1 (stereo not drawn) + CC(C)NCC(C(=O)N1CCN(c2ncnc3c2C(C)CC3O)CC1)c1ccc(Cl)cc1")
25.9
>>> quantitative_readout("CCCS(=O)(=O)Nc1ccc(F)c(C(=O)c2c[nH]c3ncc(-c4ccc(Cl)cc4)cc23)c1F + CC(C)NCC(C(=O)N1CCN(c2ncnc3c2C(C)CC3O)CC1)c1ccc(Cl)cc1")
115
>>> quantitative_readout("C=CC(=O)N1CCN(c2nc(=O)n(-c3c(C)ccnc3C(C)C)c3nc(-c4c(O)cccc4F)c(F)cc23)C(C)C1 (stereo not drawn) + CCN1CCN(Cc2ccc(Nc3ncc(F)c(-c4cc(F)c5nc(C)n(C(C)C)c5c4)n3)nc2)CC1")
18.9

----------
system: LG0567-F671-PDC multi-cell spheroid viability; test: Anticancer human tumor LG0567-F671-PDC cell line growth inhibition [IpAb]; settings: second compound 10 µM; first compound 1 µM; hits give low values;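 further: viability read after 7 days of drug exposure; 100% = DMSO vehicle control luminescence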
recorded-endpoint: viability, T/C (%)

>>> quantitative_readout("COc1c(OCCCN2CCOCC2)ccc2c3n(c(=NC(=O)c4cnc(N)nc4)nc12)CCN3 + CC(C)NCC(C(=O)N1CCN(c2ncnc3c2C(C)CC3O)CC1)c1ccc(Cl)cc1")
18.8
>>> quantitative_readout("Cn1ncc(Cl)c1-c1cc(C(=O)NC(CN)Cc2cccc(F)c2)sc1Cl (stereo not drawn) + CC(C)NCC(C(=O)N1CCN(c2ncnc3c2C(C)CC3O)CC1)c1ccc(Cl)cc1")
60.2
>>> quantitative_readout("Cn1nccc1Nc1nccc(-c2ccn(C(CO)c3ccc(Cl)c(F)c3)c(=O)c2)n1 (stereo not drawn) + CC(C)NCC(C(=O)N1CCN(c2ncnc3c2C(C)CC3O)CC1)c1ccc(Cl)cc1")
27.2

----------
Some compounds, each annotated with its measured viability, T/C.
tested on: LG0567-F671-PDC multi-cell spheroid viability; experiment: Anticancer human tumor LG0567-F671-PDC cell line growth inhibition [IpAb]; settings: second compound 10 µM; first compound 3.16 µM; hits give low values;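 further: viability read after 7 days of drug exposure; 100% = DMSO vehicle control luminescence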
recorded-endpoint: viability, T/C (%)

>>> quantitative_readout("CC1(C)CCC(CN2CCN(c3ccc(C(=O)NS(=O)(=O)c4ccc(NCC5CCOCC5)c([N+](=O)[O-])c4)c(Oc4cnc5[nH]ccc5c4)c3)CC2)=C(c2ccc(Cl)cc2)C1 + CC(C)NCC(C(=O)N1CCN(c2ncnc3c2C(C)CC3O)CC1)c1ccc(Cl)cc1")
72.8
>>> quantitative_readout("C=CC(=O)N1CCN(c2nc(=O)n(-c3c(C)ccnc3C(C)C)c3nc(-c4c(O)cccc4F)c(F)cc23)C(C)C1 (configuration not stated) + CC(C)NCC(C(=O)N1CCN(c2ncnc3c2C(C)CC3O)CC1)c1ccc(Cl)cc1")
12.5

----------
tested on: LG0567-F671-PDC multi-cell spheroid viability; assay: Anticancer human tumor LG0567-F671-PDC cell line growth inhibition [IpAb]; settings: second compound 0.01 µM; first compound 0.0316 µM; hits give low values;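 further: viability read after 7 days of drug exposure; 100% = DMSO vehicle control luminescence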
Some molecules, each annotated with its measured viability, T/C.
recorded-endpoint: viability, T/C (%)

>>> quantitative_readout("CC1(C)CCC(CN2CCN(c3ccc(C(=O)NS(=O)(=O)c4ccc(NCC5CCOCC5)c([N+](=O)[O-])c4)c(Oc4cnc5[nH]ccc5c4)c3)CC2)=C(c2ccc(Cl)cc2)C1 + CCN1CCN(Cc2ccc(Nc3ncc(F)c(-c4cc(F)c5nc(C)n(C(C)C)c5c4)n3)nc2)CC1")
96.5
>>> quantitative_readout("Cn1nccc1Nc1nccc(-c2ccn(C(CO)c3ccc(Cl)c(F)c3)c(=O)c2)n1 (stereo not given) + CCN1CCN(Cc2ccc(Nc3ncc(F)c(-c4cc(F)c5nc(C)n(C(C)C)c5c4)n3)nc2)CC1")
77.9
>>> quantitative_readout("CC(C)n1nc(-c2ccc3oc(N)nc3c2)c2c(N)ncnc21 + CCN1CCN(Cc2ccc(Nc3ncc(F)c(-c4cc(F)c5nc(C)n(C(C)C)c5c4)n3)nc2)CC1")
50
>>> quantitative_readout("Cc1nc(NC(=O)N2CCCC2C(N)=O)sc1-c1ccnc(C(C)(C)C(F)(F)F)c1 (stereo not given) + CCN1CCN(Cc2ccc(Nc3ncc(F)c(-c4cc(F)c5nc(C)n(C(C)C)c5c4)n3)nc2)CC1")
80.2
>>> quantitative_readout("COc1c(OCCCN2CCOCC2)ccc2c3n(c(=NC(=O)c4cnc(N)nc4)nc12)CCN3 + CCN1CCN(Cc2ccc(Nc3ncc(F)c(-c4cc(F)c5nc(C)n(C(C)C)c5c4)n3)nc2)CC1")
77.5
>>> quantitative_readout("C=CC(=O)N1CCN(c2nc(=O)n(-c3c(C)ccnc3C(C)C)c3nc(-c4c(O)cccc4F)c(F)cc23)C(C)C1 (stereo not given) + CCN1CCN(Cc2ccc(Nc3ncc(F)c(-c4cc(F)c5nc(C)n(C(C)C)c5c4)n3)nc2)CC1")
21.1
>>> quantitative_readout("C=CCn1c(=O)c2cnc(Nc3ccc(N4CCN(C)CC4)cc3)nc2n1-c1cccc(C(C)(C)O)n1 + CCN1CCN(Cc2ccc(Nc3ncc(F)c(-c4cc(F)c5nc(C)n(C(C)C)c5c4)n3)nc2)CC1")
95
>>> quantitative_readout("CCCS(=O)(=O)Nc1ccc(F)c(C(=O)c2c[nH]c3ncc(-c4ccc(Cl)cc4)cc23)c1F + CCN1CCN(Cc2ccc(Nc3ncc(F)c(-c4cc(F)c5nc(C)n(C(C)C)c5c4)n3)nc2)CC1")
104
>>> quantitative_readout("Cn1ncnc1[C@H]1c2n[nH]c(=O)c3cc(F)cc(c23)N[C@@H]1c1ccc(F)cc1 + CCN1CCN(Cc2ccc(Nc3ncc(F)c(-c4cc(F)c5nc(C)n(C(C)C)c5c4)n3)nc2)CC1")
64.9
>>> quantitative_readout("Cn1ncc(Cl)c1-c1cc(C(=O)NC(CN)Cc2cccc(F)c2)sc1Cl (stereo not given) + CCN1CCN(Cc2ccc(Nc3ncc(F)c(-c4cc(F)c5nc(C)n(C(C)C)c5c4)n3)nc2)CC1")
88.8

----------
Tested on: LG0567-F671-PDC multi-cell spheroid viability
Test: Anticancer human tumor LG0567-F671-PDC cell line growth inhibition [IpAb];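 further: viability read after 7 days of drug exposure; 100% = DMSO vehicle control luminescence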
Conditions: second compound 1 µM; first compound 0.01 µM; hits give low values
Method: Combinatorial screen of targeted agents with ipatasertib and abemaciclib in multi-cell type tumor spheroids […] Compounds. […] If the clinical Cmax for an agent had not been determined, the highest concentration tested was 10 microM. NCI60 Cell Culture. […] The optimal seeding densities for each of the cell lines at each time point assessed were determined prior to performing the concentration response studies. […]
Binarize viability, T/C at 60%; below is true, at or above is false.

>>> discrete_label("Cn1ncnc1[C@H]1c2n[nH]c(=O)c3cc(F)cc(c23)N[C@@H]1c1ccc(F)cc1 + CCN1CCN(Cc2ccc(Nc3ncc(F)c(-c4cc(F)c5nc(C)n(C(C)C)c5c4)n3)nc2)CC1")
"true"
>>> discrete_label("COc1c(OCCCN2CCOCC2)ccc2c3n(c(=NC(=O)c4cnc(N)nc4)nc12)CCN3 + CC(C)NCC(C(=O)N1CCN(c2ncnc3c2C(C)CC3O)CC1)c1ccc(Cl)cc1")
"true"
>>> discrete_label("CC(C)n1nc(-c2ccc3oc(N)nc3c2)c2c(N)ncnc21 + CC(C)NCC(C(=O)N1CCN(c2ncnc3c2C(C)CC3O)CC1)c1ccc(Cl)cc1")
"true"
>>> discrete_label("Cn1ncnc1[C@H]1c2n[nH]c(=O)c3cc(F)cc(c23)N[C@@H]1c1ccc(F)cc1 + CC(C)NCC(C(=O)N1CCN(c2ncnc3c2C(C)CC3O)CC1)c1ccc(Cl)cc1")
"false"
>>> discrete_label("CC(C)n1nc(-c2ccc3oc(N)nc3c2)c2c(N)ncnc21 + CCN1CCN(Cc2ccc(Nc3ncc(F)c(-c4cc(F)c5nc(C)n(C(C)C)c5c4)n3)nc2)CC1")
"true"
>>> discrete_label("COc1c(OCCCN2CCOCC2)ccc2c3n(c(=NC(=O)c4cnc(N)nc4)nc12)CCN3 + CCN1CCN(Cc2ccc(Nc3ncc(F)c(-c4cc(F)c5nc(C)n(C(C)C)c5c4)n3)nc2)CC1")
"false"
